system: Pepsin; construct: purchased Merck Millipore; experiment: Protease stability in simulated gastric fluid (Pepsin-SGF, FaSSGF); assay type: in vitro ADME; details: simulated gastric fluid with pepsin (Pepsin-SGF), 60 min, 1 μM peptide, 37° C., read-out: FaSSGF 60 (min), remaining percent of peptide
Starred links: 1 amine or outer side, 2 acyl side, 3 side chain; linkers in the order of their positions; H or OH if unused. Positions of bridges follow the written chain, without caps; N, C: chain ends. Non-standard residues stand in square brackets, D forms with d. Residues, ends and D or L forms follow the SMILES beside them. *: point of attachment. X3 = CN(CCCCC(=O)N[C@@H](CS[*:2])C(=O)[*:1])[*:3]; Trp(7-Me) = Cc1cccc2c(C[C@H](N)C(=O)O)c[nH]c12; X1 = O=C(CCCCN[*:3])N[C@@H](CS[*:2])C(=O)[*:1]; αMeLys(Me2) = CN(C)CCCC[C@](C)(N)C(=O)O; 2Nal = N[C@@H](Cc1ccc2ccccc2c1)C(=O)O; d2Nal = N[C@H](Cc1ccc2ccccc2c1)C(=O)O; AEF = NCCOc1ccc(C[C@H](N)C(=O)O)cc1; 3Pal = N[C@@H](Cc1cccnc1)C(=O)O; Thp = NC1(C(=O)O)CCOCC1; Me2NCH2CH2 = CN(C)CC*; Sar = CNCC(=O)O
measured.property: remaining at 1 h, 1 µM (%)
Could you give me the number in %? Just the number is fine.

(Q) Identify the measured remaining at 1 h, 1 µM of CC(=O)NCCCC[C@@H]1NC(=O)[C@H](Cc2c[nH]c3c(C)cccc23)NC(=O)[C@@H](NC(C)=O)CCCCNC(=O)[C@@H]2CSSC[C@H](NC1=O)C(=O)N[C@@H](Cc1ccc(OCCN(C)C)cc1)C(=O)N[C@H](Cc1ccc3ccccc3c1)C(=O)N[C@@](C)(CCCCN(C)C)C(=O)N[C@H](C(=O)N[C@@H](CC(N)=O)C(=O)N[C@@H](Cc1cccnc1)C(=O)N(C)CC(N)=O)CCC(=O)NCCCCC(=O)N2 [compound 149] (Ac-K[Trp(7-Me)]K(Ac)CY(Me2NCH2CH2)[d2Nal][αMeLys(Me2)]EN[3Pal][Sar]-NH2; linker 1-4-8 via X1) for Pepsin.
(A) 101

(Q) Identify the measured remaining at 1 h, 1 µM of CC(=O)N[C@H]1CCCCNC(=O)[C@@H]2CSSC[C@H](NC(=O)[C@H](CCC(N)=O)NC(=O)[C@H](Cc3c[nH]c4ccccc34)NC1=O)C(=O)N[C@@H](Cc1ccc(OCCN)cc1)C(=O)N[C@@H](Cc1ccc3ccccc3c1)C(=O)NC1(CCOCC1)C(=O)N[C@H](C(=O)N[C@@H](C)C(=O)N[C@H](CC(C)C)C(N)=O)CCC(=O)N(C)CCCCC(=O)N2 [compound 34] (Ac-KWQC[AEF][2Nal][Thp]EA[dL]-NH2; linker 1-4-8 via X3) for Pepsin.
(A) 84
